# maps each entry to its inhibition at 62.5 µg/mL
# Test system: Cryptococcus neoformans
# procedureDetails: Antifungal activity against Cryptococcus neoformans ATCC 32264 assessed as growth inhibition at 62.5 ug/ml after 48 hrs by broth microdilution method
# Assay type: functional
# testConditions: ATCC 32264, 48 h
Unit % implied. Number only.

COc1ccc(C2=Nc3c(N)nc(N)nc3NC(c3sc(Cl)nc3Cl)C2)cc1 (configuration not stated) | 23.1

Item under review: Nc1nc(N)c2c(n1)NC(c1sc(Cl)nc1Cl)CC(c1ccc(Cl)cc1)=N2 (configuration not stated) . Reported inhibition at 62.5 µg/mL?
40.5

Try this molecule next: Cc1ccc(C2=Nc3c(N)nc(N)nc3NC(c3sc(Cl)nc3Cl)C2)cc1 (configuration not stated)
9.2

Try this molecule next: COc1cc(C2=Nc3c(N)nc(N)nc3NC(c3sc(Cl)nc3Cl)C2)cc(OC)c1OC (configuration not stated)
9.28

Try this molecule next: Nc1nc(N)c2c(n1)NC(c1sc(Cl)nc1Cl)CC(c1ccc3c(c1)OCO3)=N2 (configuration not stated)
19.5

Try this molecule next: Nc1nc(N)c2c(n1)NC(c1sc(Cl)nc1Cl)CC(c1ccc(F)cc1)=N2 (configuration not stated)
12.8

Try this molecule next: Nc1nc(N)c2c(n1)NC(c1sc(Cl)nc1Cl)CC(c1ccccc1)=N2 (configuration not stated)
21.8

These data points were gathered from ChEMBL document CHEMBL3407460.
